System: CAKI-1 renal
test-protocol: NCI tumour cell line growth inhibition, 48 h
Measured TGI values are reported for all entries that follow.

# annotated cases, reported TGI shown
NS(=O)(=O)c1ccc(-n2nc(-c3ccccc3)cc2-c2cc(O)ccc2O)cc1 : > 100 µM
O=C(O)CCC1(CCC(=O)O)CCCCCCCCC(CCC(=O)O)(CCC(=O)O)C(=O)C1=O : > 100 µM
CCOC(=O)C(CCSC)(CCSC)C(=O)OCC : > 100 µM
CCCCCCc1cc2cc(-c3cn4ccccc4n3)c(=O)oc2cc1O : 13.5 µM
COc1cc(C(=O)c2cnc(-c3ccc4cc[nH]c4c3)[nH]2)cc(OC)c1OC : 4.2 µM
COc1ccc(-c2nsc3c2NC(=O)CC3c2cccc(F)c2)cc1 (configuration not stated) : > 100 µM

Now consider a different molecule.
Which measured TGI value corresponds to CC(=O)CCn1[nH]c(=O)c(Cl)c(Cl)c1=O ?
28.8 µM

* * *

System: SNB-75 CNS
test-protocol: NCI tumour cell line growth inhibition, 48 h
property-label: log10 TGI (log10 of the value in µM)
Transform log10 | Measure TGI | Unit µM

# annotated cases, reported log10 TGI shown
C[C@H]1[C@H](C)CC[C@]2(C(=O)O)CCC3(COC(=O)/C=C/c4ccc(O)cc4)C(=CCC4[C@@]5(C)CC[C@H](O)C(C)(C)C5CC[C@]43C)[C@H]12 (stereo not given in full) : 1.38
CN1CCN(C(=O)[C@@]2(C)CC[C@]3(C)CC[C@]4(C)C(=CC[C@@H]5[C@@]6(C)CC[C@H](OC(=O)c7cccnc7)C(C)(C)[C@@H]6CC[C@]54C)[C@@H]3C2)CC1 : 0.42

Which measured log10 TGI value corresponds to Cn1c2ccccc2c2c(=O)n(CCCC(=O)NCCc3cnc[nH]3)c3c(-c4ccccc4)nnn3c21 ?
1.27

Item: CCC1=CCC(P(=O)(c2ccccc2)c2ccccc2)CC1C (stereo not given)
1.70

Item: COC1/C=C/OC2(C)Oc3c(C)c(O)c4c(O)c(c(/C=N/N(c5ccccc5)c5ccccc5)c(O)c4c3C2=O)NC(=O)C(C)=C/C=C/C(C)C(O)C(C)C(O)C(C)C(OC(C)=O)C1C (stereo not given)
0.86

Item: CC(=O)Oc1ccc(C)c2c1[C@H]1CC[C@]3(C)[C@@H](OC(C)=O)CC[C@H]3[C@@H]1CC2
1.74

Item: CN(C)C[C@@H]1CCn2cc(c3ccccc32)C2=C(C(=O)NC2=O)c2cn(c3ccccc23)CCO1
0.78

Item: CC(C)(CN1CCCCC1)C(=O)CC(SCCS(=O)(=O)O)c1ccccc1 (stereo not given)
1.74

Item: COc1ccc2c(c1)C(=O)/C(=C/c1cccc(OCC(=O)c3ccc([N+](=O)[O-])cc3)c1)CO2
0.91

Item: CCc1cc2c(Nc3ccccc3)c3c(nc2s1)CCCC3
1.59

Item: C#Cc1cccc(Nc2ncnc3ccc(-c4cnc(N)nc4)cc23)c1
0.60

* * *

Test system: HCT-116 colon
test-protocol: NCI tumour cell line growth inhibition, 48 h
property-label: TGI

O=C(CS(=O)c1nc2ccccc2nc1-c1ccccc1)Nc1ccc(Cl)cc1 (stereo unspecified) : 33.1 µM
CC(C)c1ccc(C(O)(C(=O)O)c2ccc(C(C)C)cc2)cc1 : > 100 µM
O=C1CS(=O)c2ccccc2N1 (stereo unspecified) : > 100 µM
COC(=O)c1cc2c([nH]c3ccccc32)c(-c2nc3ccccc3cc2CO)n1 : > 100 µM
CC(C)OP(=O)(OC(C)C)/C(=N/Nc1ccc([N+](=O)[O-])cc1)NNC(=O)c1ccccc1 : > 100 µM
CCCCCCCCCCCCSC1=CC(=O)C=CC1=O : > 43.3 µM
CCCCNP1(NCCCC)=NP(NCCCC)(NCCCC)=NP(NCCCC)(NCCCC)=NP(NCCCC)(NCCCC)=N1 : 0.81 µM
O=C(/C=C/c1ccc(Cl)cc1)c1nc2ccccc2[nH]1 : 36.3 µM
CSc1c(S(C)=O)c2ccccc2n1C (stereo unspecified) : > 100 µM
C=C(C)C1CC=C(C)C(O)([C@@]2(O)C[C@H](C(=C)C)CC=C2C)C1 (stereo partly specified) : 40.1 µM

Now consider a different molecule.
Which measured TGI value corresponds to O=C(O)C1C2C=CC(O2)C1C(=O)NCc1ccncc1 (stereo unspecified) ?
> 100 µM

* * *

Tested on: RXF 393 renal
test-protocol: NCI tumour cell line growth inhibition, 48 h
Please use Y whenever TGI is not below 20 µM, and N whenever it is.

Completed entries (count: 10):
CC(=O)O[C@H]1C(=O)[C@@]2(C)[C@H]([C@H](OC(=O)c3ccccc3)[C@]3(O)C[C@H](OC(=O)[C@H](O)[C@@H](NC(=O)OC(C)(C)C)c4ccco4)C(C)=C1C3(C)C)[C@]1(OC(C)=O)CO[C@@H]1C[C@@H]2O : N
COc1ccc(-c2nsc3c2NC(=O)CC3c2cccc(F)c2)cc1 (configuration not stated) : Y
CC(C)c1ccc(C(O)(C(=O)O)c2ccc(C(C)C)cc2)cc1 : Y
CC[C@H](C)[C@H](NC(=O)[C@H]1CCCCN1C)C(=O)N(C)[C@H](C[C@@H](OC(C)=O)c1nc(C(=O)NC23C4C5C2C2C3C4C52C(=O)OC)cs1)C(C)C (some centres not stated) : N
CC(C)(Cl)C(Cl)CC/C(CBr)=C(\Cl)CBr (configuration not stated) : N
N#CCCN(c1ccc(C=Nc2ccc(C(=O)O)cc2)cc1)S(=O)(=O)c1ccccc1 : Y
CN(C)C1(N(C)C)Oc2c(c(=O)n(C)c(=O)n2C)C(c2ccc(F)cc2)C1(F)F (configuration not stated) : Y
O=c1[nH]c(Br)nc2n[nH]nc12 : Y
CCCCNP1(NCCCC)=NP(NCCCC)(NCCCC)=NP(NCCCC)(NCCCC)=NP(NCCCC)(NCCCC)=N1 : N
CCOC(=O)C(CCSC)(CCSC)C(=O)OCC : Y

hey, is TGI for this one >= 20 µM? CC(/C=C1\CCC(CN(C)C)C1=O)c1cccc(Br)c1 (configuration not stated)
Y

Item: Cc1ccc2nc(-c3nccn3C)cc(C(=O)NC(C)CN(C)C)c2c1 (configuration not stated)
Y

Item: CCCCCCC(O)C(=O)OC1C2C(CC1(C)C)C(O)C13OC1C(O)C1(CO1)[C@@]23C (some centres not stated)
Y

Item: COc1c(N2CCCCC2)c2c(=O)c3ccccc3oc2c2c3ccccc3n(C)c12
Y

Item: C#Cc1cccc(Nc2ncnc3ccc(-c4cnc(N)nc4)cc23)c1
N

Item: CCCCCCCCCCCCCC(=O)NO
N

Item: CCOC(OCC)[C@@H]1C[C@@H]2N(O[C@H](OC3CCCC3(c3ccccc3)c3ccccc3)[C@H](OC(C)=O)[C@@]2(CC)Cc2ccc(OC)c(OC)c2)O1 (some centres not stated)
Y

Item: O=C(N/N=C/c1cc(Cl)cc(Cl)c1[O-])c1ccccc1O.O=C(N/N=C/c1cc(Cl)cc(Cl)c1[O-])c1ccccc1O.[Cu+2]
N

Item: CC[C@@]1(O)C(=O)OCc2c1cc1n(c2=O)Cc2cc3cccc(N)c3nc2-1
Y

Item: Oc1c(Cl)c(Cl)c(O)c(-c2cnc(-c3ncc(-c4c(O)c(Cl)c(Cl)c(O)c4Cl)s3)s2)c1Cl
Y

* * *

Measured log10(TGI) values are reported for all entries that follow.
Tested on: BT-549 breast
test-protocol: NCI tumour cell line growth inhibition, 48 h
Transform log10 | Measure TGI | Unit µM

# annotated cases, reported log10(TGI) shown
Cn1c2ccccc2c(=NNc2ccc(S(=O)(=O)N=C(N)N)cc2)c2ccccc21 : 1.46
CC(=O)Oc1ccc(C)c2c1[C@H]1CC[C@]3(C)[C@@H](OC(C)=O)CC[C@H]3[C@@H]1CC2 : 1.51
Cc1ccc(/C=C2\CCS(=O)(=O)c3ccccc3C2=O)cc1 : 1.53
C=C1C(=O)O[C@H]2C3OC3(C)CC/C=C(/C(=O)OC)[C@@H](OC(C)=O)[C@H](OC(=O)C3(C)OC3C)[C@H]12 (some centres undefined) : 0.36
COc1ccc(C(=O)/C=C/c2c(C(F)(F)F)nc3ccccn23)cc1OC : 1.64

Now consider a different compound.
Which measured log10(TGI) value corresponds to Oc1ccccc1/C=N\Nc1ccccc1 ?
1.40

* * *

System: SN12C renal
test-protocol: NCI tumour cell line growth inhibition, 48 h; in the data active means GI50 below about 0.43 µM; inactive means the rest
Assign a class; possible classes are TRUE (active), FALSE (inactive)

Completed entries (count: 2):
Cc1cnc(-c2ccc(-c3ccc(NC(=O)Nc4cccc(C(F)(F)F)c4)cc3F)c3c2C(=O)NC3)[nH]1 : TRUE
C#Cc1cccc(Nc2ncnc3ccc(-c4cnc(N)nc4)cc23)c1 : FALSE

Record request — test call for Cl.[O-]c1cccc2cccnc12.[O-]c1cccc2cccnc12.[O-]c1cccc2cccnc12.[O-]c1cccc2cccnc12.[Ti+4]
FALSE

Item: O=C1/C=C/[C@@H](O)[C@@H]2C[C@@H](O)C[C@H]2/C=C/CCC[C@H](CCc2ccc(NC(=S)Nc3ccc4c(c3)C(=O)OC43c4ccc(O)cc4Oc4cc(O)ccc43)cc2)O1
FALSE

Item: Cn1cc(-c2csc(-c3cn(CCCN4CCCCC4)c4ccc(Br)cc34)n2)c2cccnc21
FALSE

Item: CCN(CC)CCOc1ccc(NC(=O)C(C(C)C)N2C(=O)/C(=C/c3ccc(Br)cc3)SC2=S)cc1 (stereo unspecified)
FALSE

Item: CN(C)c1ccc2cc3c(cc2c1)Oc1ccccc1N3.[Cl][Zn][Cl]
FALSE

Item: CCCCCCCCCCCCSC1=CC(=O)C=CC1=O
FALSE

Item: CN(CCCCCCCCNc1ccnc2ccccc12)Cc1ccc(-c2ccc(-c3ccc(C#N)cc3)s2)cc1
FALSE

Item: O=C1c2c(c3c4ccccc4n(CCCCCCN4CCOCC4)c3c3[nH]c4ccccc4c23)C(=O)N1O
FALSE

Item: COC(=O)c1cc2c([nH]c3ccccc32)c(-c2nc3ccccc3cc2CO)n1
FALSE

Item: COc1cc2c(cc1OC)-c1c(c3ccc([N+](=O)[O-])cc3c(=O)n1CCCN=[N+]=[N-])C2=O
FALSE

Item: CN(C)C[C@@H]1CCn2cc(c3ccccc32)C2=C(C(=O)NC2=O)c2cn(c3ccccc23)CCO1
FALSE

Item: COC1/C=C/OC2(C)Oc3c(C)c(O)c4c(O)c(c(/C=N/N(c5ccccc5)c5ccccc5)c(O)c4c3C2=O)NC(=O)C(C)=C/C=C/C(C)C(O)C(C)C(O)C(C)C(OC(C)=O)C1C (stereo unspecified)
FALSE

Item: Cc1ccc2c(c1)C(=O)/C(=C/c1cccc(OCC(=O)c3ccc(Cl)cc3)c1)CS2
FALSE

Item: O=C(Nc1cccc(-n2ccc3c(NC(=O)c4ccccc4)nccc32)c1)c1ccc(Cl)c(Cl)c1
TRUE
